Each entry below carries its reported Target/Non-Target Uptake Ratio Heart/Lungs.
EXPERIMENTAL DETAILS: Dynamic SPECT imaging and biological distribution in dogs after intravenous injection
Assay type: in vivo
COND: 5 Minutes
Procedure: Dogs were intravenously injected with [^99mTc(CO)3(MIBI)3]^+ or [^99mTc(MIBI)6][…]at dose of 5.55×10^5 Bq. […] Time—radioactivity curves were also collected for the heart, liver, lungs, and kidneys. Target/non-target radioactivity ratios were calculated, and fall body imaging was performed separately at different times. The biological distributions of the imaging agents in the body were analyzed. […]
Could you keep your reply to the number by itself?

[C-]#[N+]CC(C)(C)OC.[C-]#[N+]CC(C)(C)OC.[C-]#[N+]CC(C)(C)OC.[C-]#[N+]CC(C)(C)OC.[C-]#[N+]CC(C)(C)OC.[C-]#[N+]CC(C)(C)OC.[Tc] [[^99mTc(MIBI)6]^+, reference compound] ... 2.48

Name the recorded Target/Non-Target Uptake Ratio Heart/Lungs for COC(C)(C)CN=[C]=[99Tc+](=[C]=O)(=[C]=O)(=[C]=O)(=[C]=NCC(C)(C)OC)=[C]=NCC(C)(C)OC [[^99mTc(CO)3(MIBI)3]^+] .
2.67
